Checkbox rule: logP lower than 2 = Criterion met; logP not lower than 2 = Criterion not met.

input: Problem: For the molecule CNC(=O)C=Cc1ccc([N+](=O)[O-])o1 , is logP under 2?
output: Criterion met

input: Problem: For the molecule O=[N+]([O-])c1ccc(C=CBr)o1 , is logP under 2?
output: Criterion not met

input: Problem: For the molecule COC(=O)C(C#N)=Cc1ccc(Br)o1 , is logP under 2?
output: Criterion not met

input: Problem: For the molecule CC(C)COC(=O)/C=C/c1ccc([N+](=O)[O-])o1 , is logP under 2?
output: Criterion not met

input: Problem: For the molecule O=C(O)/C=C/c1ccc([N+](=O)[O-])o1 , is logP under 2?
output: Criterion met

input: Problem: For the molecule CCCCOC(=O)C=Cc1ccc([N+](=O)[O-])o1 , is logP under 2?
output: Criterion not met

input: Problem: For the molecule CC(C)OC(=O)/C=C/c1ccc([N+](=O)[O-])o1 , is logP under 2?
output: Criterion not met

input: Problem: For the molecule CCC(C)OC(=O)/C=C/c1ccc([N+](=O)[O-])o1 (stereo unspecified) , is logP under 2?
output: Criterion not met

input: Problem: For the molecule CC(C)(C)OC(=O)C=Cc1ccc([N+](=O)[O-])o1 , is logP under 2?
output: Criterion not met

input: Problem: For the molecule CCCCNC(=O)C=Cc1ccc([N+](=O)[O-])o1 , is logP under 2?
output: Criterion not met

input: Problem: For the molecule O=[N+]([O-])/C=C/c1ccc([N+](=O)[O-])o1 , is logP under 2?
output: Criterion met
